FYI, the data here is from patent US7625887B2.

biological target: rabbit TGR5 (Oryctolagus cuniculus, UniProt Q862A8); construct: expressed in transfected cells; host or cells: CHO cells; test: cAMP production increasing activity in rabbit TGR5 expressing CHO cells; assay type: cell-based; conditions: Experimental Example 6; 2 μM; 10 μM lithocholic acid = 100%; average of 3 groups
Sequence (Q862A8 whole entry): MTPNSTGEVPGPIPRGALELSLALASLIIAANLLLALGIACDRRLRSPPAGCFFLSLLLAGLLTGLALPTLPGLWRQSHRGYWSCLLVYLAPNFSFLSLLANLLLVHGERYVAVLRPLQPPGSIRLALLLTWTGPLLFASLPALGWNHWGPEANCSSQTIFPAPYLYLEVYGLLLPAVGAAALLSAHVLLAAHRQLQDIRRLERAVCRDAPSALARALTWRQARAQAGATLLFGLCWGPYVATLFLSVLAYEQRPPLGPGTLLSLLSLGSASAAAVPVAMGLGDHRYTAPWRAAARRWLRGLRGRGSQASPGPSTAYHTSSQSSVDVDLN
Entries and their cAMP production increasing activity (control %)

Check out these entries, answers already filled in.
{"molecule": "O=C(c1cc(C(F)(F)F)cc(C(F)(F)F)c1)N1CCOc2nccc(-c3ccccc3)c2C1 [Example 14C]", "result": "116 control %"}
{"molecule": "FC(F)(F)c1cc(CN2CCOc3nccc(-c4ccccc4)c3C2)cc(C(F)(F)F)c1", "result": "99 control %"}
{"molecule": "FC(F)(F)c1cc(CN2CCCOc3nccc(-c4ccccc4)c3C2)cc(C(F)(F)F)c1.FC(F)(F)c1cc(CN2CCCOc3nccc(-c4ccccc4)c3C2)cc(C(F)(F)F)c1.O=S(=O)(O)O [Example 18C]", "result": "106 control %"}

Query: Please give the measured cAMP production increasing activity (control %) for this molecule: CC(C)(C)CN1C(=O)C(CC(=O)NCc2ccccc2F)N(C(=O)c2ccncc2)Cc2ccccc21 (stereo not shown)
Reply: 71.2 control %

----------
biological target: human TGR5 (Homo sapiens, UniProt Q8TDU6); construct: expressed in transfected cells; host or cells: CHO cells; test: cAMP production increasing activity in human TGR5 expressing CHO cells; type: cell-based; settings: test compound 1 μM, 30 min; 1 μM lithocholic acid = 100%, no addition = 0%; average of 3 groups
reported.property: cAMP production increasing activity (control %)
A number alone suffices; assume control %.

Some compounds with recorded cAMP production increasing activity (control %):
{"compound": "CC(=O)NCc1cccc([C@@H]2O[C@H](CC(=O)NCc3ccccc3F)C(=O)N(CC(C)(C)C)c3ccc(Cl)cc32)c1 (relative stereo) [Reference Example 3]", "number": 85}
{"compound": "FC(F)(F)c1cc(CN2CCOc3nccc(-c4ccccc4)c3C2)cc(C(F)(F)F)c1", "number": 96}

Proceed to the following item.
Query: What measured cAMP production increasing activity (control %) is associated with CC(C)(C)CN1C(=O)[C@@H](CC(=O)NCc2ccccc2F)O[C@@H](c2cccc(CNC(=O)C(F)(F)F)c2)c2cc(Cl)ccc21 (relative stereo) [Reference Example 5] on human TGR5 (Homo sapiens, UniProt Q8TDU6)?
Reply: 116

----------
Biological target: human TGR5 (Homo sapiens)
Construct: expressed in transfected cells; host or cells: CHO cells
Sequence (Q8TDU6 1-330): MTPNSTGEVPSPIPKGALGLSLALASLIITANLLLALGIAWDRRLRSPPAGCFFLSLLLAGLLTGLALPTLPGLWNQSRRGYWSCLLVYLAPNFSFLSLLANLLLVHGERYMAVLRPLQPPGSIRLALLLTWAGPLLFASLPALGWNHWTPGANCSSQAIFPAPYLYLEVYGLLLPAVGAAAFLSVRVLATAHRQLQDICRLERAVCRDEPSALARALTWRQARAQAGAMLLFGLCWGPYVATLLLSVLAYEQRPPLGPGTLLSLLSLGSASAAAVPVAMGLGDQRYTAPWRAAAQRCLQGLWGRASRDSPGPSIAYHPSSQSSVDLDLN
Experiment: cAMP production increasing activity in human TGR5 expressing CHO cells
Type: cell-based
Settings: test compound 1 μM, 30 min; 1 μM lithocholic acid = 100%, no addition = 0%; average of 3 groups
reported.property: cAMP production increasing activity (control %)

# example entries with known answers
{"compound": "COC(=O)NCc1cccc([C@@H]2O[C@H](CC(=O)NCc3ccccc3F)C(=O)N(CC(C)(C)C)c3ccc(Cl)cc32)c1 (relative stereo) [Reference Example 6]", "result": "98 control %"}
{"compound": "CC(C)(C)CN1C(=O)[C@@H](CC(=O)NCc2ccccc2F)O[C@@H](c2cccc(CO)c2)c2cc(Cl)ccc21 (relative stereo) [Reference Example 9]", "result": "128 control %"}
{"compound": "CC(C)(C)CN1C(=O)[C@@H](CC(=O)NCc2ccccc2F)O[C@@H](c2cccc(N)c2)c2cc(Cl)ccc21 (relative stereo) [Reference Example 1]", "result": "97 control %"}

Query: Bench note: what cAMP production increasing activity (control %) did CC(C)(C)CN1C(=O)[C@@H](CC(=O)NCc2ccccc2F)O[C@@H](c2cccc(C3OCCO3)c2)c2cc(Cl)ccc21 (relative stereo) [Reference Example 2] show?
Reply: 108 control %

Query: Which measured cAMP production increasing activity (control %) value corresponds to CC(C)(C)CN1C(=O)[C@@H](CC(=O)NCc2ccccc2F)O[C@@H](c2cccc(CNS(C)(=O)=O)c2)c2cc(Cl)ccc21 (relative stereo) [Reference Example 4] ?
Reply: 80 control %

Query: Item CC(C)(C)CN1C(=O)C(CC(=O)NCc2ccccc2F)N(C(=O)c2ccncc2)Cc2ccccc21 (centres unmarked) has what recorded cAMP production increasing activity (control %)?
Reply: 113 control %

Query: Given the compound FC(F)(F)c1cc(CN2CCCOc3nccc(-c4ccccc4)c3C2)cc(C(F)(F)F)c1.FC(F)(F)c1cc(CN2CCCOc3nccc(-c4ccccc4)c3C2)cc(C(F)(F)F)c1.O=S(=O)(O)O [Example 18C] , what is its reported cAMP production increasing activity (control %)?
Reply: 112 control %

Query: Please look up its cAMP production increasing activity (control %): O=C(c1cc(C(F)(F)F)cc(C(F)(F)F)c1)N1CCOc2nccc(-c3ccccc3)c2C1 [Example 14C]
Reply: 100 control %
